Origin of values: paper PMC2756588

# System tested: Rvs167, P39743
# Sequence (P39743 419-482): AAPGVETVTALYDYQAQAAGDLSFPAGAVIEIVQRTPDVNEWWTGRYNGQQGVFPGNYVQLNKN
# Protocol details: SPOT array
# Experimental context: median of control spots 2707
Observation type: SPOT intensity
Please give only the number in your answer, with no unit.

Here are 6 binders together with their reported answers.
binder=LLIRWLILMPLVGSR recorded_result=1
binder=RNNRPVPPPPPMRTT recorded_result=1870
binder=VPVAPPPPPASLGQS recorded_result=0
binder=TPRLSLPRLPNKHHW recorded_result=2
binder=ATNVPVAPPPPPASL recorded_result=0
binder=IFLRISINFPLNYPN recorded_result=1

Lab note: measured SPOT intensity of WRPRIVPILPYITRL was 36
